# assay_overview: NCI Yeast Anticancer Drug Screen. Data for the rad50 strain (AID 155);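 note: 0% = growth of vehicle-only cultures of the same strain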
# study_conditions: S. cerevisiae rad50 strain growth inhibition; at 50.0 µM; active compounds read high
About 79,000 compounds went through this panel and 15% of them were active in at least one assay; those are over-represented in the sample as a whole.

compound: O=C1CCC(=O)N1CC1CC2CCC1C2 (configuration not stated)
growth inhibition / %: 40
--
compound: CSC1(SC)CCCCCCCCCCC1
growth inhibition / %: -19.8
--
compound: NCCSSC/C=C\CSSCCN
growth inhibition / %: 2.65
--
compound: O=C(c1nc2ccccc2[nH]1)N1CCN(c2ccccc2)CC1
growth inhibition / %: 2.95
--
compound: Brc1cccc(C2ON=C(c3ccccc3)N2C23CC4CC(CC(C4)C2)C3)c1 (configuration not stated)
growth inhibition / %: 2.2
--
compound: CC(=O)c1c(O)cccc1O
growth inhibition / %: -11.8
--
compound: O=c1nc(NCC23CC4CC(CC(C4)C2)C3)ccn1C1OC(CO)C(O)C1O (configuration not stated)
growth inhibition / %: 21.8
